biological target: human mPGES-1 (Homo sapiens (Human), UniProt O14684); assay: mPGES-1 inhibitory activity test; type: biochemical; settings: 100 nM test compound
Sequence (O14684 whole entry): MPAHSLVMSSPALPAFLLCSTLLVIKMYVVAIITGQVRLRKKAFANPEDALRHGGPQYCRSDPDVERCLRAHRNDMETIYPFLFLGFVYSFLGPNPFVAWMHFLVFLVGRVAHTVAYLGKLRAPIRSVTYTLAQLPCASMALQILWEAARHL
PARAMETER: inhibition at 0.1 µM (%)

COc1ccc(-n2ncc3c(NC(=O)c4cc(CNC(=O)C5(C(F)(F)F)CC5)ccc4Cl)cccc32)cc1C(F)(F)F [Example 263]; 85
COCC(=O)NCc1ccc(Cl)c(C(=O)Nc2cccc3c2cnn3-c2ccc(C)c(C(F)(F)F)c2)c1 [Example 258]; 100
Cc1ccc(-n2ncc3c(NC(=O)c4cc(CNS(=O)(=O)C5CC5)ccc4Cl)cccc32)nn1 [Example 253]; 75
COc1cc(-n2ncc3c(NC(=O)c4cc(CNS(=O)(=O)C5CC5)ccc4Cl)cccc32)ccn1 [Example 165]; 96
Cc1cncc(-n2ncc3c(NC(=O)c4cc(CNC(=O)C(C)(C)C)ccc4C(F)(F)F)cccc32)c1 [Example 246]; 89
Cc1ccc(-n2ncc3c(NC(=O)c4cc(CNC(=O)C(C)(C)CO)ccc4Cl)cccc32)cc1C(F)(F)F [Example 259]; 92
Cc1ccc(-n2ncc3c(NC(=O)c4cc(CNC(=O)C(C)(C)C)ccc4C(F)(F)F)cccc32)cc1Cl [Example 200]; 103
Cc1cc(-n2ncc3c(NC(=O)c4cc(CNC(=O)C5CCCC5)ccc4Cl)cccc32)cc(C)n1 [Example 278]; 90
CCn1ncc2c(NC(=O)c3cc(CNC(=O)C(C)(C)C)ccc3C(F)(F)F)cccc21 [Example 217]; 80
Cn1ncc2c(NC(=O)c3cc(CNC(=O)C(C)(C)C)ccc3C(F)(F)F)cccc21 [Example 209]; 90
Cc1ccc(-n2ncc3c(NC(=O)c4cc(CNS(=O)(=O)C5CC5)ccc4Cl)cccc32)cc1C(F)(F)F [Example 260]; 101
Cn1ncc2c(NC(=O)c3cc(CNS(=O)(=O)C4CC4)ccc3Cl)cccc21 [Example 208]; 68
COc1cc(-n2ncc3c(NC(=O)c4cc(CNC(=O)C(C)(C)CO)ccc4Cl)cccc32)ccn1 [Example 164]; 100
CC(C)(CO)C(=O)NCc1ccc(Cl)c(C(=O)Nc2cccc3c2cnn3-c2cncc(C(F)(F)F)c2)c1 [Example 171]; 100
Cn1ncc2c(NC(=O)c3cc(CNC(=O)C4CCCC4)ccc3Cl)cccc21 [Example 204]; 85
COc1ccc(-n2ncc3c(NC(=O)c4cc(CNC(=O)CC(C)(C)C)ccc4Cl)cccc32)cc1C(F)(F)F [Example 261]; 100
O=C(Nc1cccc2c1cnn2-c1cccc(OC(F)F)c1)c1cc(CNC(=O)C2(O)CC2)ccc1Cl [Example 141]; 100
COc1ccc(-n2ncc3c(NC(=O)c4cc(CNC(=O)C(C)(C)C)ccc4C(F)(F)F)cccc32)cn1 [Example 276]; 94
COCC(=O)NCc1ccc(Cl)c(C(=O)Nc2cccc3c2cnn3-c2ccc(OC)c(C(F)(F)F)c2)c1 [Example 265]; 100
CC(C)n1ncc2c(NC(=O)c3cc(CNC(=O)C(C)(C)C)ccc3C(F)(F)F)cccc21 [Example 202]; 79
O=C(Nc1cccc2c1cnn2-c1cccc(C(F)(F)F)c1)c1cc(CNC(=O)C2(O)CC2)ccc1Cl [Example 221]; 100
Cc1ccc(-n2ncc3c(NC(=O)c4cc(CNC(=O)CC(C)(C)C)ccc4Cl)cccc32)cc1C(F)(F)F [Example 254]; 99
COCC(=O)NCc1ccc(Cl)c(C(=O)Nc2cccc3c2cnn3-c2ccc(Cl)cc2)c1 [Example 148]; 100
O=C(Nc1cccc2c1cnn2-c1cncc(C(F)(F)F)c1)c1cc(CNC(=O)C2(C(F)(F)F)CC2)ccc1Cl [Example 168]; 92
COc1ccc(-n2ncc3c(NC(=O)c4cc(CNC(=O)C5CCCC5)ccc4Cl)cccc32)cn1 [Example 270]; 88
O=C(Nc1cccc2c1cnn2-c1ccc(C(F)(F)F)nc1)c1cc(CNC(=O)C2CCCC2)ccc1Cl [Example 174]; 86
O=C(Nc1cccc2c1cnn2-c1ccc(OC(F)(F)F)cc1)c1cc(CNC(=O)C2(C(F)(F)F)CC2)ccc1Cl [Example 116]; 100
CC(C)(CO)C(=O)NCc1ccc(Cl)c(C(=O)Nc2cccc3c2cnn3-c2cscn2)c1 [Example 192]; 90
COc1ccc(-n2ncc3c(NC(=O)c4cc(CNC(=O)C5(C(F)(F)F)CC5)ccc4Cl)cccc32)cn1 [Example 271]; 90
